Biological target: GST-PPARG-LBD (Homo sapiens, UniProt P37231)
Construct: A mixture of 5 nM GST-PPARG-LBD; purchased Invitrogen
Sequence (P37231 238-503 limits assumed): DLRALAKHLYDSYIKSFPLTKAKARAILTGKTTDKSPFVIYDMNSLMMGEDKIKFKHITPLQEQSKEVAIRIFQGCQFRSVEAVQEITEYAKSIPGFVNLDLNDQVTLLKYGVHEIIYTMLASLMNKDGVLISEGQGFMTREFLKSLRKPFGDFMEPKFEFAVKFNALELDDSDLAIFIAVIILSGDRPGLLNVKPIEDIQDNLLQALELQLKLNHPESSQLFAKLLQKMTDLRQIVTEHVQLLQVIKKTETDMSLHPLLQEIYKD
Assay: Lanthascreen PPARG competitive binding assay (Invitrogen)
Conditions: Table 3; read-out: IC50 (nM) Lantha
Procedure: Lanthascreen PPARG Competitive Binding Assay (Invitrogen) The assay was performed according to manufacturer protocol. […] Experiment was performed in triplicate, and incubated for 2 hours in the dark prior to assay read in Perkin Elmer ViewLux ultra HTS microplate reader. FRET signal was measured by excitation at 340 nm and emission at 520 nm for fluorescein and 490 nm for terbium. Fold change over DMSO was calculated using GraphPad Prism Software (La Jolla, Calif.) by calculating 520 nm/490 nm ratio. […]
reported-metric: IC50 (nM)

Examples with their reported IC50 follow.
>>> experimental_result("C[C@@H](CC1CCOCC1)NC(=O)c1ccc2c(c1)ncn2Cc1ccc(Cl)cc1 [Cpd 19]")
2100
>>> experimental_result("CC(C)c1cccc([C@H](C)NC(=O)c2ccc3c(c2)ncn3[C@@H](C)c2ccc(Cl)cc2)c1 [Cpd 15]")
2520
>>> experimental_result("C[C@H](NC(=O)c1ccc2c(c1)ncn2Cc1ccc(Cl)cc1)c1ccc(Br)cc1 [Cpd 16]")
2380
>>> experimental_result("O=C(N[C@H](CO)c1ccccc1)c1ccc2c(c1)ncn2Cc1ccc(Cl)cc1 [Cpd 42]")
921

P. CC(C)c1cccc([C@H](C)NC(=O)c2ccc3c(c2)ncn3Cc2ccc(Cl)nc2)c1 [Cpd 49]
Q. COC[C@H](C)NC(=O)c1ccc2c(c1)ncn2Cc1ccc(Cl)cc1 [Cpd 25]
Query :: Of P and Q , which one carries the higher reported IC50? The response must carry the label of the picked entry.
Result :: Q
(Q: 5220 nM, P: 2050 nM)

I. COCCCNC(=O)c1ccc2c(c1)ncn2Cc1ccc(Cl)cc1 [Cpd 22]
II. CC(C)CCC(C)NC(=O)c1ccc2c(c1)ncn2[C@H](C)c1ccc(Cl)cc1 (some centres unmarked) [Cpd 48]
Query :: Endpoint returns whichever of I and II has the numerically higher IC50. Return value: the label identifying the chosen record.
Result :: I

I. COC[C@@H](NC(=O)c1ccc2c(c1)ncn2Cc1ccc(Cl)cc1)C(C)C [Cpd 39]
II. CC(C)CCC(C)NC(=O)c1ccc2c(c1)ncn2Cc1ccc(Cl)cc1 (centres unmarked) [Cpd 30]
Query :: Field: entry with larger IC50 (options I / II ). Label of pick, please.
Result :: I
(I: 612 nM, II: 42.3 nM)
